Target: DYRK1a (h) (Homo sapiens (Human), UniProt Q13627)
Experiment: Kinase selectivity panel: DYRK1a (h)
Type: biochemical
Details: 10 μM in duplicate, read-out: % inhibition of control values
Method: (a) Compounds 1 and 2 were tested against a panel of 60 kinases in order to assess their selectivity. The assays were chosen taking into consideration the diversity of assay families. […] Human recombinant kinases were incubated in the presence of specific peptide substrates plus ATP for different times (10, 15, 30, 60 or 90 minutes) at 22° C. Phosphorylated substrate was detected by LANCE or HTRF technology (CISBIO, MA, USA). […]
Let's look at some compounds and their measured inhibition at 10 µM.
PROPERTY MEASURED: inhibition at 10 µM (%)

COMPOUND STRING	MEASURED ON	PROPERTY MEASURED	UNIT NAME	VALUE MEASURED
COc1ccc2[nH]nc(C(=O)NCC3CCN(CCC(=O)O)CC3)c2c1	DYRK1a (h) (Homo sapiens (Human), UniProt Q13627)	inhibition at 10 µM	%	51
COCCN1CCC(CNC(=O)c2n[nH]c3ccc(OC)cc23)CC1	DYRK1a (h) (Homo sapiens (Human), UniProt Q13627)	inhibition at 10 µM	%	56
CCc1ccc2[nH]nc(C(=O)NCC3CCN(CC(=O)O)CC3)c2c1	DYRK1a (h) (Homo sapiens (Human), UniProt Q13627)	inhibition at 10 µM	%	77
COCCN1CCC(CNC(=O)c2n[nH]c3ccc(-c4cccc(F)c4F)cc23)CC1	DYRK1a (h) (Homo sapiens (Human), UniProt Q13627)	inhibition at 10 µM	%	99
COc1ccc2[nH]nc(C(=O)NCC3CCN(CC(=O)O)CC3)c2c1	DYRK1a (h) (Homo sapiens (Human), UniProt Q13627)	inhibition at 10 µM	%	76
O=C(O)CN1CCC(CNC(=O)c2n[nH]c3ccc(-c4cccc(F)c4F)cc23)CC1	DYRK1a (h) (Homo sapiens (Human), UniProt Q13627)	inhibition at 10 µM	%	100

---

molecular target: JAK2 (h) (Homo sapiens (Human), UniProt O60674); assay: Kinase selectivity panel: JAK2 (h); format: biochemical; conditions: 10 μM in duplicate, read-out: % inhibition of control values
Sequence (O60674 whole entry): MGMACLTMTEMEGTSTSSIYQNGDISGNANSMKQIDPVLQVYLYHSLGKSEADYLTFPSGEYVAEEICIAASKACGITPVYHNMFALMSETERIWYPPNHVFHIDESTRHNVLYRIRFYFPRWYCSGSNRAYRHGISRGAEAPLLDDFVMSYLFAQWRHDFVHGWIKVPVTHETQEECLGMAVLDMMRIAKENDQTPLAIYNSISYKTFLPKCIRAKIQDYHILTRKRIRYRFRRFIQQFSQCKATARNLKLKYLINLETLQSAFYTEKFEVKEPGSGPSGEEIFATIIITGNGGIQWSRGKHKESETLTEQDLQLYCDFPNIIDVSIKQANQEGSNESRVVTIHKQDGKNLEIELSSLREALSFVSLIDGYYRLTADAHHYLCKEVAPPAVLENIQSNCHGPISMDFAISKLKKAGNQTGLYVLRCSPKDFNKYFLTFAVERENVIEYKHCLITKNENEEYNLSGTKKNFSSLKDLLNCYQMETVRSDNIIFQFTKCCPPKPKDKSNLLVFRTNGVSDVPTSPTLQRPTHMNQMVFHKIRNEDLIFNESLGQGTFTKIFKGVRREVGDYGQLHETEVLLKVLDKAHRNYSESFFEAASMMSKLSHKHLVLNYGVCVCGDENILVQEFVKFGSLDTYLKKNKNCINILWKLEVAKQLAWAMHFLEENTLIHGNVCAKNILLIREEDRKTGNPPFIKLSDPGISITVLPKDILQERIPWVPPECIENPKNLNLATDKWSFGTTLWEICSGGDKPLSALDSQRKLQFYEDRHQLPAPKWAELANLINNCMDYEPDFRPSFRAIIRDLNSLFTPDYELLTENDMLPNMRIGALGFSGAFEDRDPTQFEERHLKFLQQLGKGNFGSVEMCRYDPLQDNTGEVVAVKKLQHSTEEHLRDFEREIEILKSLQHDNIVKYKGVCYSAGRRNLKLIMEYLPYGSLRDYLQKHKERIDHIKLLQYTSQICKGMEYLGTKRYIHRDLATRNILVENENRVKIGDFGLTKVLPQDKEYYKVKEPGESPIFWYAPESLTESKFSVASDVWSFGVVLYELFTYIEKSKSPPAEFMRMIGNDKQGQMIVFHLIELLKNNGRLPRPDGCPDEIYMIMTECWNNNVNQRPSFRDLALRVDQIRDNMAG
Recorded inhibition at 10 µM, one value per entry.

COMPOUND STRING	MEASURED ON	inhibition at 10 µM
COCCN1CCC(CNC(=O)c2n[nH]c3ccc(OC)cc23)CC1	JAK2 (h) (Homo sapiens (Human), UniProt O60674)	0%
COc1ccc2[nH]nc(C(=O)NCC3CCN(CCC(=O)O)CC3)c2c1	JAK2 (h) (Homo sapiens (Human), UniProt O60674)	0%
COCCN1CCC(CNC(=O)c2n[nH]c3ccc(-c4cccc(F)c4F)cc23)CC1	JAK2 (h) (Homo sapiens (Human), UniProt O60674)	23%
COc1ccc2[nH]nc(C(=O)NCC3CCN(CC(=O)O)CC3)c2c1	JAK2 (h) (Homo sapiens (Human), UniProt O60674)	0%

---

inhibition at 10 µM values for the compounds below.
biological target: CDC2/CDK1 (h) (cycB) (Homo sapiens (Human), UniProt P06493); assay: Kinase selectivity panel: CDC2/CDK1 (h) (cycB); format: biochemical; details: 10 μM in duplicate, read-out: % inhibition of control values
Sequence (P06493 whole entry): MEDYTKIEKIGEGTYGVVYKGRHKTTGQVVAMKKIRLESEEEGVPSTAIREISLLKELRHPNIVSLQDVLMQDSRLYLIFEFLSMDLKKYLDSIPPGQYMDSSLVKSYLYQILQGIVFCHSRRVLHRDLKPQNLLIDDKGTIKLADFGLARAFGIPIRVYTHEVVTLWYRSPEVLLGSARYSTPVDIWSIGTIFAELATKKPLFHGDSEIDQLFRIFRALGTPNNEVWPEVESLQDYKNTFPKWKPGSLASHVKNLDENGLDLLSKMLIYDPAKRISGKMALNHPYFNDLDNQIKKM
Sequence (P14635 whole entry partner): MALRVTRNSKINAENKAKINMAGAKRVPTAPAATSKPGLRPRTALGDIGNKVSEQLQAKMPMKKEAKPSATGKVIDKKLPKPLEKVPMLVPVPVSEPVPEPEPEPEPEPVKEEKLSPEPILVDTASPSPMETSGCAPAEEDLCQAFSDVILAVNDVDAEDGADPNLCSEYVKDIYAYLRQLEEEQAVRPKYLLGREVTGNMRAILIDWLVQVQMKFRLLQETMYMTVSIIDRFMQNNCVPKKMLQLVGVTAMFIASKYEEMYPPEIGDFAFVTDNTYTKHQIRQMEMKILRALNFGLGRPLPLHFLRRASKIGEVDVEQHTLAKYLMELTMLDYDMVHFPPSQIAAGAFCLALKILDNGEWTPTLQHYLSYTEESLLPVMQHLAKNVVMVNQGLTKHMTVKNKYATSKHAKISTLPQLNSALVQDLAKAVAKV

COMPOUND	UNIT NAME	inhibition at 10 µM
COCCN1CCC(CNC(=O)c2n[nH]c3ccc(-c4cccc(F)c4F)cc23)CC1 [Compound 8]	%	80
COc1ccc2[nH]nc(C(=O)NCC3CCN(CCC(=O)O)CC3)c2c1 [Compound 3]	%	8
CCc1ccc2[nH]nc(C(=O)NCC3CCN(CC(=O)O)CC3)c2c1 [Compound 31]	%	10
O=C(O)CN1CCC(CNC(=O)c2n[nH]c3ccc(-c4cccc(F)c4F)cc23)CC1 [Compound 29]	%	80
COc1ccc2[nH]nc(C(=O)NCC3CCN(CC(=O)O)CC3)c2c1 [Compound 1]	%	7
COCCN1CCC(CNC(=O)c2n[nH]c3ccc(OC)cc23)CC1 [Compound 2]	%	0

---

We begin with a simple list: items and their reported inhibition at 10 µM.
target: GSK3beta (h) (Homo sapiens (Human), UniProt P49841); assay: Kinase selectivity panel: GSK3beta (h); type: biochemical; settings: GSK3beta (h); 10 μM in duplicate; read-out: % inhibition of control values
Sequence (P49841 whole entry): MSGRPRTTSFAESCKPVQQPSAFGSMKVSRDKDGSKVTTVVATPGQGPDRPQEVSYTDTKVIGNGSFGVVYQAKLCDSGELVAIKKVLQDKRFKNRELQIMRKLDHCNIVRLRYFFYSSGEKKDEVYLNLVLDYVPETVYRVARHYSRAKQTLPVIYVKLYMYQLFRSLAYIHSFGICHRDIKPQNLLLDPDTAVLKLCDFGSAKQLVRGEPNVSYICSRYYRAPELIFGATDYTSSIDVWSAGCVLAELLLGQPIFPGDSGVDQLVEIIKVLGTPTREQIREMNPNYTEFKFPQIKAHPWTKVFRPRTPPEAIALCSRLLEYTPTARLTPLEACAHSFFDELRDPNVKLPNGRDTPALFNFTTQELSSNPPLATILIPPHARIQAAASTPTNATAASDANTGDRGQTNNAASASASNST
PROPERTY MEASURED: inhibition at 10 µM (%)

MOLECULE	VALUE MEASURED
O=C(O)CN1CCC(CNC(=O)c2n[nH]c3ccc(-c4cccc(F)c4F)cc23)CC1 [Compound 29]	100
COc1ccc2[nH]nc(C(=O)NCC3CCN(CCC(=O)O)CC3)c2c1 [Compound 3]	89
COCCN1CCC(CNC(=O)c2n[nH]c3ccc(OC)cc23)CC1 [Compound 2]	90
CCc1ccc2[nH]nc(C(=O)NCC3CCN(CC(=O)O)CC3)c2c1 [Compound 31]	89
COc1ccc2[nH]nc(C(=O)NCC3CCN(CC(=O)O)CC3)c2c1 [Compound 1]	94

---

Some compounds, each annotated with its measured inhibition at 10 µM.
target: PCTAIRE1 kinase (h) (Homo sapiens (Human), UniProt Q00536); experiment: Kinase selectivity panel: PCTAIRE1 kinase (h); type: biochemical; conditions: 10 μM in duplicate, read-out: % inhibition of control values
Sequence (Q00536 whole entry): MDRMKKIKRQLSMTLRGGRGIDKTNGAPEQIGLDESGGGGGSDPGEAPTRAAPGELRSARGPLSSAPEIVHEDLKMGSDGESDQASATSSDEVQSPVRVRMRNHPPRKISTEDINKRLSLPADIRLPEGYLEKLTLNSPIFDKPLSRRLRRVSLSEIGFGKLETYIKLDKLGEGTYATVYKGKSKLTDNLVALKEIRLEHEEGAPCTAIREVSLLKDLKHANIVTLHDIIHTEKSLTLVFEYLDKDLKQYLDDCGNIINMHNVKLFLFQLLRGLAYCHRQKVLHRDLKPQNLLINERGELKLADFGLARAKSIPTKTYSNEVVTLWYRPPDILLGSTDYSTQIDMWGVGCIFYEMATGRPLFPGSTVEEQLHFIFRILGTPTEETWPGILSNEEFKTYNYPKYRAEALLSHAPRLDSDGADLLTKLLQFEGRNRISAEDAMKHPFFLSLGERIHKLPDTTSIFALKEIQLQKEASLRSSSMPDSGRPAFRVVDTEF
PROPERTY MEASURED: inhibition at 10 µM (%)

COMPOUND	MEASURED ON	UNIT NAME	VALUE MEASURED
COCCN1CCC(CNC(=O)c2n[nH]c3ccc(OC)cc23)CC1 [Compound 2]	PCTAIRE1 kinase (h) (Homo sapiens (Human), UniProt Q00536)	%	71
COCCN1CCC(CNC(=O)c2n[nH]c3ccc(-c4cccc(F)c4F)cc23)CC1 [Compound 8]	PCTAIRE1 kinase (h) (Homo sapiens (Human), UniProt Q00536)	%	84
O=C(O)CN1CCC(CNC(=O)c2n[nH]c3ccc(-c4cccc(F)c4F)cc23)CC1 [Compound 29]	PCTAIRE1 kinase (h) (Homo sapiens (Human), UniProt Q00536)	%	49
COc1ccc2[nH]nc(C(=O)NCC3CCN(CC(=O)O)CC3)c2c1 [Compound 1]	PCTAIRE1 kinase (h) (Homo sapiens (Human), UniProt Q00536)	%	22
COc1ccc2[nH]nc(C(=O)NCC3CCN(CCC(=O)O)CC3)c2c1 [Compound 3]	PCTAIRE1 kinase (h) (Homo sapiens (Human), UniProt Q00536)	%	0
CCc1ccc2[nH]nc(C(=O)NCC3CCN(CC(=O)O)CC3)c2c1 [Compound 31]	PCTAIRE1 kinase (h) (Homo sapiens (Human), UniProt Q00536)	%	27

---

biological target: UniProt:O15111; assay: Kinase selectivity panel: IKKalpha (h); type: biochemical; details: 10 μM in duplicate, read-out: % inhibition of control values
Sequence (O15111 whole entry): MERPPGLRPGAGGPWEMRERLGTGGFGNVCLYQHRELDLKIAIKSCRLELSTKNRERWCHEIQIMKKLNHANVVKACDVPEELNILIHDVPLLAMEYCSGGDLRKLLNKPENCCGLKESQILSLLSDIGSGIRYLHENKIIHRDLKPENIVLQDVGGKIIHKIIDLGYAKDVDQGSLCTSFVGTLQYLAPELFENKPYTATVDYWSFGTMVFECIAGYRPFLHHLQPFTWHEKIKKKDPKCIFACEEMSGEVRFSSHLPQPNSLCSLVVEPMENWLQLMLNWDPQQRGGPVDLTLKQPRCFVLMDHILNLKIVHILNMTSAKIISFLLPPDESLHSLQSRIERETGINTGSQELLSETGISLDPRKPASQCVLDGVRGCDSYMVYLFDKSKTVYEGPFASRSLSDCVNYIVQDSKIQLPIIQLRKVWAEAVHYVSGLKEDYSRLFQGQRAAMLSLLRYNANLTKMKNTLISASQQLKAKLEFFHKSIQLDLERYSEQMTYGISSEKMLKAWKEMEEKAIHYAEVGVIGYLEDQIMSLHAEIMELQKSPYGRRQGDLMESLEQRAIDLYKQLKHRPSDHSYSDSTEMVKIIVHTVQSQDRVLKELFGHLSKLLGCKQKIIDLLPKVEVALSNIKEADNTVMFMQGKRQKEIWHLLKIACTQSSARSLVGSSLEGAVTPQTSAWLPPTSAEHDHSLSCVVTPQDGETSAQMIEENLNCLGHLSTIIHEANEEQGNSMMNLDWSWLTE
Measured inhibition at 10 µM by item

COMPOUND	inhibition at 10 µM [%]
COc1ccc2[nH]nc(C(=O)NCC3CCN(CCC(=O)O)CC3)c2c1 [Compound 3]	0
COc1ccc2[nH]nc(C(=O)NCC3CCN(CC(=O)O)CC3)c2c1 [Compound 1]	0
COCCN1CCC(CNC(=O)c2n[nH]c3ccc(OC)cc23)CC1 [Compound 2]	0
COCCN1CCC(CNC(=O)c2n[nH]c3ccc(-c4cccc(F)c4F)cc23)CC1 [Compound 8]	1

---

biological target: UniProt:Q8TDX7; assay: Kinase selectivity panel: NEK7 (h); format: biochemical; conditions: 10 μM in duplicate, read-out: % inhibition of control values
Sequence (Q8TDX7 whole entry): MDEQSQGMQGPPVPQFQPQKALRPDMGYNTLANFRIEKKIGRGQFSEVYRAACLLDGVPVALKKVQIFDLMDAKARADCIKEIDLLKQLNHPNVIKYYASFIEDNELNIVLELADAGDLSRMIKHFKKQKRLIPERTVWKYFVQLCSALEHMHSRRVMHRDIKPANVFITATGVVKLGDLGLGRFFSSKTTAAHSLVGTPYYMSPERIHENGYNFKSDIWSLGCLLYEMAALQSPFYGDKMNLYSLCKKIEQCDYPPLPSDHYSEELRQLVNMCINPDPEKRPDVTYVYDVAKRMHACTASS
inhibition at 10 µM values by entry

COMPOUND STRING	UNIT NAME	inhibition at 10 µM
COCCN1CCC(CNC(=O)c2n[nH]c3ccc(OC)cc23)CC1	%	0
COc1ccc2[nH]nc(C(=O)NCC3CCN(CCC(=O)O)CC3)c2c1	%	2
COc1ccc2[nH]nc(C(=O)NCC3CCN(CC(=O)O)CC3)c2c1	%	0
COCCN1CCC(CNC(=O)c2n[nH]c3ccc(-c4cccc(F)c4F)cc23)CC1	%	0

---

biological target: MEK1/MAP2K1 (h) (Homo sapiens (Human), UniProt Q02750); assay: Kinase selectivity panel: MEK1/MAP2K1 (h); assay type: biochemical; details: 10 μM in duplicate, read-out: % inhibition of control values
Sequence (Q02750 whole entry): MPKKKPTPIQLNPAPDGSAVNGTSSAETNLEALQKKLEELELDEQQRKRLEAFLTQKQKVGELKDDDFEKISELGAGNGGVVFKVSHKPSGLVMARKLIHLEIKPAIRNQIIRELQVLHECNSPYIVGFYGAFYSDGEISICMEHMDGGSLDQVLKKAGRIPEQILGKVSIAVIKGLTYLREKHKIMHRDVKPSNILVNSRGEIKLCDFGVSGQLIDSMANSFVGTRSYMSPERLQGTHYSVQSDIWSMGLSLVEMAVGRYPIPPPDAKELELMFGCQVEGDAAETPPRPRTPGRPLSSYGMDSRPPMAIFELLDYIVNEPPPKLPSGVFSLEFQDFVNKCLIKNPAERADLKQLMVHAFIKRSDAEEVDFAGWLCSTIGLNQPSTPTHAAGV
Each entry below lists one item and its recorded inhibition at 10 µM value.

COMPOUND STRING	inhibition at 10 µM [%]
CCc1ccc2[nH]nc(C(=O)NCC3CCN(CC(=O)O)CC3)c2c1	9
COc1ccc2[nH]nc(C(=O)NCC3CCN(CC(=O)O)CC3)c2c1	24
COCCN1CCC(CNC(=O)c2n[nH]c3ccc(OC)cc23)CC1	9
O=C(O)CN1CCC(CNC(=O)c2n[nH]c3ccc(-c4cccc(F)c4F)cc23)CC1	75

---

molecular target: TRKA (h) (Homo sapiens (Human), UniProt P04629); assay: Kinase selectivity panel: TRKA (h); format: biochemical; details: 10 μM in duplicate, read-out: % inhibition of control values
Sequence (P04629 33-796): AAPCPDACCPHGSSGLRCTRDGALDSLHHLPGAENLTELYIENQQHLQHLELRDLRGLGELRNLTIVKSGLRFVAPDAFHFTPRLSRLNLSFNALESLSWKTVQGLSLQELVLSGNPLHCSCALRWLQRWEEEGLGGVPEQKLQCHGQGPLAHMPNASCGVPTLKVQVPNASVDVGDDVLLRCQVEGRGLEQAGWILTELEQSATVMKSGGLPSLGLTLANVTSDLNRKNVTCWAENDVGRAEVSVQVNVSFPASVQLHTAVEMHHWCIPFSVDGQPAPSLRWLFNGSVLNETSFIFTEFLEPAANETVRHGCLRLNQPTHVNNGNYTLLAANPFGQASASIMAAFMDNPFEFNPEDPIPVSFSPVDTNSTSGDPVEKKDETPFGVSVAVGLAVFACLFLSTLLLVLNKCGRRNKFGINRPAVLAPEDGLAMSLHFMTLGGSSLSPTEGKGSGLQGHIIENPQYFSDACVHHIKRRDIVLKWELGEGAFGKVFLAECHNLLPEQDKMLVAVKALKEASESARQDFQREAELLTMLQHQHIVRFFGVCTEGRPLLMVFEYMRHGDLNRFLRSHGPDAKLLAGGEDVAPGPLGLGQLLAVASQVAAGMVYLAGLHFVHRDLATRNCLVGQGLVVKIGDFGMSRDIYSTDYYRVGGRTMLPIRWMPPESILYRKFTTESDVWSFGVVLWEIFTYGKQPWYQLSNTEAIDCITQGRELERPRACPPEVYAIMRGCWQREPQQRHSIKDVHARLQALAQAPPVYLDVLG
Each entry below lists one item and its recorded inhibition at 10 µM value.

COMPOUND STRING	inhibition at 10 µM / %
COc1ccc2[nH]nc(C(=O)NCC3CCN(CCC(=O)O)CC3)c2c1	0
COc1ccc2[nH]nc(C(=O)NCC3CCN(CC(=O)O)CC3)c2c1	1
CCc1ccc2[nH]nc(C(=O)NCC3CCN(CC(=O)O)CC3)c2c1	0
COCCN1CCC(CNC(=O)c2n[nH]c3ccc(OC)cc23)CC1	0
COCCN1CCC(CNC(=O)c2n[nH]c3ccc(-c4cccc(F)c4F)cc23)CC1	14
O=C(O)CN1CCC(CNC(=O)c2n[nH]c3ccc(-c4cccc(F)c4F)cc23)CC1	3

Values from patent US9611249B2
